# experiment.description: qHTS for Inhibitors of human tyrosyl-DNA phosphodiesterase 1 (TDP1): qHTS in cells in absence of CPT; further: nearly all actives have a fitted effect of over 55% in size
# experimental.conditions: DT40 Tdp1-/- hTDP1 cells, no CPT, ATP luminescence, 48 h
About 64,000 (15%) of roughly 420,000 compounds were called active. Another 27% or so got no clear call; they are omitted. The call rests on the fitted dose curve; in most records, active means well fitted inhibition curve with a large enough effect; inconclusive means small, poorly fitted or top-dose-only effect; inactive means flat fitted curve, though single readings scatter. The list is a sample of the results.
Hello, when you answer, please use one of the following outcomes: active, inactive

COc1ccc(-c2n[nH]c(C)c2-c2ccccc2OC)c(O)c1    active

Asked: What classification did CN(C)C(=O)c1cccn(Cc2cccc(C(F)(F)F)c2)c1=O end up with in this test?
Given back: inactive

Asked: Now this one: Cc1ccc2nc(-c3cccnc3)c(NC3CCCC3)n2c1
Given back: active

Asked: Now this one: COc1ccc(NC(=O)/C(C#N)=C\c2cc(OC)c(OCc3ccc(C(=O)O)cc3)cc2Br)cc1
Given back: inactive

Asked: Now this one: CN(C)c1ccc(C(CC(=O)O)C(=O)O)cc1 (centres undefined)
Given back: inactive

Asked: Now this one: Cc1cc(/C=C2\SC(=Nc3ccc(N4CCOCC4)cc3)N(C)C2=O)c(C)n1-c1cccnc1
Given back: inactive

Asked: Now this one: COc1ccc(CCNC(=O)CSc2nnc(-c3cccc(F)c3)o2)cc1OC
Given back: inactive

Asked: Now this one: c1cc(-n2cnnn2)ccc1NC1=NCCC1
Given back: inactive

Asked: Now this one: CS(=O)(=O)N(Cc1nc2sc3c(c2c(=O)[nH]1)CCCC3)C1CCCCC1
Given back: active

Asked: Now this one: COc1ccc(NC(=S)N2CCCC(CO)C2)c(OC)c1 (centres undefined)
Given back: inactive

Asked: Now this one: O=C(O)C(F)(F)C(NCc1ccccc1)c1ccccc1 (centres undefined)
Given back: inactive

Asked: Now this one: Cc1nc2ccccn2c1C(=O)NN=C1CCN(C)CC1
Given back: inactive

Asked: Now this one: COC(=O)CCCCC1=CCC2C(=O)C=C(O)C2C1 (centres undefined)
Given back: inactive

Asked: Now this one: O=C(CC1Oc2ccccc2NC1=O)NCc1ccc(F)cc1 (centres undefined)
Given back: inactive

###

# experiment.description: qHTS for Inhibitors of human tyrosyl-DNA phosphodiesterase 1 (TDP1): qHTS in cells in absence of CPT; further: nearly all actives have a fitted effect of over 55% in size
# experimental.conditions: DT40 Tdp1-/- hTDP1 cells, no CPT, ATP luminescence, 48 h
Screen size: about 420,000 compounds; about 64,000 (15%) were called active. Roughly 27% stayed inconclusive and do not appear here. Calls come from the whole dose curve; as a rule, active = well fitted inhibition curve with a large enough effect; inconclusive = small, poorly fitted or top-dose-only effect; inactive = flat fitted curve, though single readings scatter. Not all results are given here.
Hello, when you answer, please use one of the following outcomes: yes (active), no (inactive)

The following molecules have reported results that may help.
CC(=O)Nc1cccc(-c2ccnc3c2CC(C)(C(=O)NCc2ccccc2)O3)c1 (stereo unspecified)    yes
CCCOc1ccccc1C1CC(=O)Nc2cc3c(cc21)OCO3 (stereo unspecified)    yes
CSc1ncccc1C(=O)NC1CCCCCC1    no
COCCOC(=O)C1=C(C)NC(=O)CC1c1cc2c(cc1Br)OCO2 (stereo unspecified)    no
CCOC(=O)c1ccc(-n2c(CCC(=O)O)ccc2-c2ccccc2)cc1    no

--- query ---
Asked: What classification did CCOc1ccccc1NS(=O)(=O)c1c[nH]c(C(=O)OC)c1 end up with in this test?
Given back: no

###

# experiment.description: qHTS for Inhibitors of human tyrosyl-DNA phosphodiesterase 1 (TDP1): qHTS in cells in absence of CPT; further: nearly all actives have a fitted effect of over 55% in size
# experimental.conditions: DT40 Tdp1-/- hTDP1 cells, no CPT, ATP luminescence, 48 h
# Procedure: Human tyrosyl-DNA phosphodiesterase 1 (TDP1) is a novel repair gene, and we propose to use it as a new target for anticancer drug development. […] For the primary screen, Tdp1-/-;hTDP1 cells will be exposed to small molecules in the presence or absence of CPT, and their growth kinetics will be evaluated after 48 hours by measuring ATP activity. […] The hit compounds will then be evaluated in the presence or absence of CPT using Tdp1-/- cells. […]
In all, about 420,000 compounds went through this assay and about 64,000 (15%) were called active. About 27% were inconclusive and are not listed. Calls come from the whole dose curve; as a rule, active = well fitted inhibition curve with a large enough effect; inconclusive = small, poorly fitted or top-dose-only effect; inactive = flat fitted curve, though single readings scatter. Not all results are given here.
Hello, when you answer, please use one of the following outcomes: active, inactive

The following compounds have reported results that may help.
Cc1cccc(C)c1OCCN1CCOCC1    inactive
COc1ccc(NC2CC(=O)N(C)C2=O)cc1 (stereo unspecified)    inactive
CC1CN(CCOc2ccccc2[N+](=O)[O-])CC(C)O1 (stereo unspecified)    inactive
CCOC(=O)C1CCCN(C(=O)c2ccc(N(C)C)cc2)CC1 (stereo unspecified)    inactive
CCN1CCN(C(=O)c2ccc(CN(c3ccc(C)c(C)c3)S(C)(=O)=O)cc2)CC1    inactive
Cn1cc(CN2CCCCC2c2ccccn2)c(-c2ccc3c(c2)OCCO3)n1 (stereo unspecified)    inactive

--- query ---
Asked: What classification did Cc1ccc(S(=O)(=O)N/N=C(\c2ccccc2)C2CC2)cc1 end up with in this test?
Given back: inactive

###

# experiment.description: qHTS for Inhibitors of human tyrosyl-DNA phosphodiesterase 1 (TDP1): qHTS in cells in absence of CPT; further: nearly all actives have a fitted effect of over 55% in size
# experimental.conditions: DT40 Tdp1-/- hTDP1 cells, no CPT, ATP luminescence, 48 h
In all, about 420,000 compounds went through this assay and about 64,000 (15%) were called active. Roughly 27% stayed inconclusive and do not appear here. The call rests on the fitted dose curve; in most records, active means well fitted inhibition curve with a large enough effect; inconclusive means small, poorly fitted or top-dose-only effect; inactive means flat fitted curve, though single readings scatter. A selection follows.
Hello, when you answer, please use one of the following outcomes: y for active, n for inactive

The following molecules have reported results that may help.
NC(=S)NN=C1CCCC(C(F)(F)F)C1 (stereo unspecified)    y
NC(=O)N1CCCC1C(=O)Nc1ccc(Cl)c(Cl)c1 (stereo unspecified)    n
O=C(CN1C(=O)NC2(CCCC2)C1=O)Nc1cc(C(F)(F)F)ccc1N1CCOCC1    n
CC(=O)Nc1ccc(NC(=O)CN2CCCC(C)C2)c(Cl)c1 (stereo unspecified)    n
CCCn1c(=O)c2ccccc2n2c(SCC(=O)/C(C#N)=C(\C)N)nnc12    n

--- query ---
Asked: What classification did COc1ccc([N+](=O)[O-])cc1NC(=O)CC1SC(=Nc2cccc(C)c2C)N(/N=C(\C)c2ccc(C)cc2)C1=O (stereo unspecified) end up with in this test?
Given back: n

###

# experiment.description: qHTS for Inhibitors of human tyrosyl-DNA phosphodiesterase 1 (TDP1): qHTS in cells in absence of CPT; further: nearly all actives have a fitted effect of over 55% in size
# experimental.conditions: DT40 Tdp1-/- hTDP1 cells, no CPT, ATP luminescence, 48 h
About 64,000 (15%) of roughly 420,000 compounds were called active. Inconclusive results (about 27%) are left out. The call rests on the fitted dose curve; in most records, active means well fitted inhibition curve with a large enough effect; inconclusive means small, poorly fitted or top-dose-only effect; inactive means flat fitted curve, though single readings scatter. These entries were drawn from the full list.
Hello, when you answer, please use one of the following outcomes: active, inactive

The following compounds have reported results that may help.
CCN(CC)c1ccc2oc(=O)c(C)nc2c1    active
CC(Oc1ccc(Cl)cc1)C(=O)OCC(=O)Nc1ncc(Cl)cc1Cl (centres undefined)    inactive
COc1ccccc1C(c1nnnn1CC1CCCO1)N1CCN(c2ccccc2)CC1 (centres undefined)    inactive

Asked: What classification did COC(=O)c1c(-c2ccsc2)oc2ccc(-c3cc(OC)c(OC)c(OC)c3)cc12 end up with in this test?
Given back: active

Asked: Now this one: Cc1ccsc1C1C(C#N)=C(N)OC2=C1C(=O)CC(C)C2 (centres undefined)
Given back: inactive

Asked: Now this one: CC(=O)c1nc(N2C(=O)C3CC=C(C)CC3C2=O)sc1C (centres undefined)
Given back: inactive

Asked: Now this one: CCOC(=O)C1=NNC2(c3ccc(Cl)cc3)C(=O)N(c3cc(C)cc(C)c3)C(=O)C12 (centres undefined)
Given back: inactive

Asked: Now this one: CCN(CC)c1ccc2cc(C(=O)O)c(=O)oc2c1
Given back: inactive

Asked: Now this one: O=S(=O)(NCCc1ccccc1)c1ccccc1
Given back: inactive

Asked: Now this one: CNC(=O)c1ccc(-c2nc(CN3CCc4ccccc43)c(C)o2)cc1
Given back: active

Asked: Now this one: COc1cccc(CN(C)C(=O)CC[C@H]2O[C@@H](n3cnc4c(NC(=O)c5ccccc5)ncnc43)[C@H](O)[C@@H]2O)c1
Given back: inactive

Asked: Now this one: CCOc1ccc(C(=O)N2CCN(CCc3ccccn3)CC2)cc1
Given back: inactive

Asked: Now this one: CCOC(=O)c1c(-c2ccccc2)oc2ccc(OCC(=O)NN)cc12
Given back: inactive

Asked: Now this one: O=C(NCCCN1CCOCC1)c1ccccc1NS(=O)(=O)c1ccc(Br)cc1
Given back: inactive

Asked: Now this one: O=C(NCCCN1CCOCC1)c1ccccc1NS(=O)(=O)c1ccc(F)cc1
Given back: inactive

Asked: Now this one: CCC(C)NC(=O)CN(C1CCCCC1)S(C)(=O)=O (centres undefined)
Given back: inactive

Asked: Now this one: CCc1ccc2c(c1)cc(CN(C(=S)Nc1ccccc1Cl)C1CC1)c1nnnn12
Given back: inactive

Asked: Now this one: CSc1ccc(CNCCN2CCOCC2)cc1
Given back: inactive

Asked: Now this one: COc1ccc(CCn2nnnc2C(c2ccccc2)N2CCN(C)CC2)cc1OC (centres undefined)
Given back: inactive

Asked: Now this one: COC(OC)c1ccnc(SCc2ccccc2Cl)n1
Given back: inactive

Asked: Now this one: O=C(NCCCN1CCOCC1)c1cnn2c(-c3ccccc3)cc(-c3ccccc3)nc12
Given back: active

Asked: Now this one: N/C(=N\OC(=O)CCCC(=O)O)c1ncc(C(F)(F)F)cc1Cl
Given back: inactive
